Values compiled from patent US10273267B2.

*1 amine or outer side, *2 acyl side, *3 side chain or, on linkers, in order; H or OH if unused. Where a SMILES comes first, the peptide text is derived from it. [ ]: non-standard residue; d: D form. X1 = NCCCC[C@@H](CCC(=O)[*:2])N[*:1]; Gly(octyl) = CCCCCCCC[C@H](N)C(=O)O; Aad = N[C@@H](CCCC(=O)O)C(=O)O
What follows is a record of pIC50 for porcine pancreatic elastase (Sus scrofa).
Bear in mind: pIC50 is minus log10 of a mol/L concentration; give just that figure.

stdin: Name the recorded pIC50 for CCCCCCCC[C@@H]1NC(=O)[C@@H]2CCCN2C(=O)[C@H]2CCCN2C(=O)[C@H]([C@@H](C)O)NC(=O)[C@H](CCCCN)NC(=O)[C@H](CCC(N)=O)NC(=O)[C@@H]2CCCN2C(=O)[C@@H]2CCCN2C(=O)[C@H]([C@@H](C)CC)NC(=O)[C@H](CO)NC(=O)[C@H](C)NC(=O)[C@H]([C@@H](C)O)NC(=O)[C@H](Cc2ccccc2)NC1=O [Example 13] (cyclo([Gly(octyl)]FTASIPPQKT[dP]P)) .
stdout: 4.67

stdin: Item under review: CCCCCCCC[C@@H]1NC(=O)[C@@H]2CCCN2C(=O)[C@H]2CCCN2C(=O)[C@H]([C@@H](C)O)NC(=O)CC[C@H](CCCCN)NC(=O)[C@H](CCC(N)=O)NC(=O)[C@@H]2CCCN2C(=O)[C@@H]2CCCN2C(=O)[C@H]([C@@H](C)CC)NC(=O)[C@H](CO)NC(=O)[C@H](C)NC(=O)[C@H]([C@@H](C)O)NC(=O)[C@H](CCC(=O)O)NC1=O [Example 38] (cyclo([Gly(octyl)]ETASIPPQ[X1]T[dP]P)) . Reported pIC50?
stdout: 5.04

stdin: For the compound CCCCCCCC[C@@H]1NC(=O)[C@@H]2CCCN2C(=O)[C@H]2CCCN2C(=O)[C@H](CCCC(N)=O)NC(=O)[C@H](CCCCN)NC(=O)[C@H](CCC(N)=O)NC(=O)[C@@H]2CCCN2C(=O)[C@@H]2CCCN2C(=O)[C@H]([C@@H](C)CC)NC(=O)[C@H](CO)NC(=O)[C@H](C)NC(=O)[C@H]([C@@H](C)O)NC(=O)[C@H](CCC(=O)O)NC1=O [Example 5] (cyclo([Gly(octyl)]ETASIPPQK[Aad](NH2)[dP]P)) , what pIC50 is on record?
stdout: 5.80

====

- tested.on: human proteinase 3 (Homo sapiens, UniProt P24158)
- Construct: purchased Elastin Products Company, USA
- Sequence (P24158 28-248): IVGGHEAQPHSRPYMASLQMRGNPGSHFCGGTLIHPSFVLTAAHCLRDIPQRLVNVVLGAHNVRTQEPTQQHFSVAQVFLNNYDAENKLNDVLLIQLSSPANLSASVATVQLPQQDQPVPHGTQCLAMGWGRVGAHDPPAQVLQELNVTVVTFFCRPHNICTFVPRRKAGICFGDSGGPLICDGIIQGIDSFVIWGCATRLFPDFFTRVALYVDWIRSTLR
- method: Inhibition of human proteinase 3 (substrate Boc-Ala-Ala-Nva-SBzl)
- Format: biochemical
- experimental.parameters: ratio of hPr3 IC50 to hNE IC50
*1 amine or outer side, *2 acyl side, *3 side chain or, on linkers, in order; H or OH if unused. Where a SMILES comes first, the peptide text is derived from it. [ ]: non-standard residue; d: D form. X2 = C[C@@H](O)[C@@H](CCC(=O)[*:2])N[*:1]; Oic = O=C(O)[C@@H]1C[C@@H]2CCCC[C@@H]2N1; Gly(octyl) = CCCCCCCC[C@H](N)C(=O)O; Dap = NC[C@H](N)C(=O)O
recorded.endpoint: hNE/hPr3 selectivity

stdin: hNE/hPr3 selectivity lookup needed for CCCCCCCC[C@@H]1NC(=O)[C@H](CCCCN)NC(=O)[C@@H](CO)NC(=O)[C@H]([C@@H](C)O)NC(=O)[C@H](CCCCN)NC(=O)[C@H](CCC(N)=O)NC(=O)[C@@H]2CCCN2C(=O)[C@@H]2CCCN2C(=O)[C@H]([C@@H](C)CC)NC(=O)[C@H](CO)NC(=O)[C@H](C)NC(=O)[C@H]([C@@H](C)O)NC(=O)[C@H](CCC(=O)O)NC1=O [Example 32] (cyclo([Gly(octyl)]ETASIPPQKT[dS]K)) , thanks.
stdout: >4484

stdin: What measured hNE/hPr3 selectivity goes with CCCCCCCC[C@@H]1NC(=O)[C@@H]2CCCN2C(=O)[C@H]2CCCN2C(=O)[C@H]([C@@H](C)O)NC(=O)[C@H](CCCCN)NC(=O)[C@H](CCC(N)=O)NC(=O)[C@@H]2C[C@@H]3CCCC[C@@H]3N2C(=O)[C@@H]2CCCN2C(=O)[C@H]([C@@H](C)CC)NC(=O)[C@H](CO)NC(=O)[C@H](C)NC(=O)[C@H]([C@@H](C)O)NC(=O)[C@H](CCC(=O)O)NC1=O [Example 10] (cyclo([Gly(octyl)]ETASIP[Oic]QKT[dP]P)) ?
stdout: >13699

stdin: Name the recorded hNE/hPr3 selectivity for CCCCCCCC[C@@H]1NC(=O)[C@H](Cc2ccc(O)cc2)NC(=O)[C@@H](CO)NC(=O)[C@H]([C@@H](C)O)NC(=O)[C@H](CCCCN)NC(=O)[C@H](CCC(N)=O)NC(=O)[C@@H]2CCCN2C(=O)[C@@H]2CCCN2C(=O)[C@H]([C@@H](C)CC)NC(=O)[C@H](CO)NC(=O)[C@H](C)NC(=O)[C@H]([C@@H](C)O)NC(=O)[C@H](CCC(=O)O)NC1=O [Example 31] (cyclo([Gly(octyl)]ETASIPPQKT[dS]Y)) .
stdout: 1432

stdin: Quick check: hNE/hPr3 selectivity of CCCCCCCC[C@@H]1NC(=O)[C@@H]2CCCN2C(=O)[C@H]2CCCN2C(=O)CC[C@H]([C@@H](C)O)NC(=O)[C@H](CCCCN)NC(=O)[C@H](CCC(N)=O)NC(=O)[C@@H]2CCCN2C(=O)[C@@H]2CCCN2C(=O)[C@H]([C@@H](C)CC)NC(=O)[C@H](CO)NC(=O)[C@H](C)NC(=O)[C@H]([C@@H](C)O)NC(=O)[C@H](CCC(=O)O)NC1=O [Example 11] (cyclo([Gly(octyl)]ETASIPPQK[X2][dP]P)) ?
stdout: 1835

stdin: Please give the measured hNE/hPr3 selectivity for this molecule: CCCCCCCC[C@@H]1NC(=O)[C@@H]2CCCN2C(=O)[C@H]2CCCN2C(=O)[C@H](CN)NC(=O)[C@H](CCCCN)NC(=O)[C@H](CCC(N)=O)NC(=O)[C@@H]2CCCN2C(=O)[C@@H]2CCCN2C(=O)[C@H]([C@@H](C)CC)NC(=O)[C@H](CO)NC(=O)[C@H](C)NC(=O)[C@H]([C@@H](C)O)NC(=O)[C@H](CCC(=O)O)NC1=O [Example 2] (cyclo([Gly(octyl)]ETASIPPQK[Dap][dP]P))
stdout: 644

====

- tested.on: porcine pancreatic elastase (Sus scrofa, UniProt P00772)
- Sequence (P00772 27-266): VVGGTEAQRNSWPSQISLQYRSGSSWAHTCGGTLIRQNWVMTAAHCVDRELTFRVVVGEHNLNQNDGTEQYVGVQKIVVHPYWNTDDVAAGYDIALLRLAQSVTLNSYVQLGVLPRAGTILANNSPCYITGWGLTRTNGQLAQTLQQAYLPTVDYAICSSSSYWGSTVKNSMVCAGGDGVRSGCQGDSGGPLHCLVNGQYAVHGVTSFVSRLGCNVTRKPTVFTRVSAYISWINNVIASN
Where a SMILES comes first, the peptide text is derived from it. [ ]: non-standard residue; d: D form. Oic = O=C(O)[C@@H]1C[C@@H]2CCCC[C@@H]2N1; Gly(octyl) = CCCCCCCC[C@H](N)C(=O)O
recorded.endpoint: pIC50
// pIC50: -log10(molar conc.)

stdin: Fill in the blank: the reported pIC50 of CCCCCCCC[C@@H]1NC(=O)[C@@H]2C[C@@H]3CCCC[C@@H]3N2C(=O)[C@H]2CCCN2C(=O)[C@H]([C@@H](C)O)NC(=O)[C@H](CCCCN)NC(=O)[C@H](CCC(N)=O)NC(=O)[C@@H]2CCCN2C(=O)[C@@H]2CCCN2C(=O)[C@H]([C@@H](C)CC)NC(=O)[C@H](CO)NC(=O)[C@H](C)NC(=O)[C@H]([C@@H](C)O)NC(=O)[C@H](CCC(=O)O)NC1=O [Example 6] (cyclo([Gly(octyl)]ETASIPPQKT[dP][Oic])) is ____.
stdout: 5.41

stdin: # pIC50 lookup, item CCCCCCCC[C@@H]1NC(=O)[C@H](CCCCN)NC(=O)[C@@H](C(C)C)NC(=O)[C@H]([C@@H](C)O)NC(=O)[C@H](CCCCN)NC(=O)[C@H](CCC(N)=O)NC(=O)[C@@H]2CCCN2C(=O)[C@@H]2CCCN2C(=O)[C@H]([C@@H](C)CC)NC(=O)[C@H](CO)NC(=O)[C@H](C)NC(=O)[C@H]([C@@H](C)O)NC(=O)[C@H](CCC(=O)O)NC1=O [Example 22] (cyclo([Gly(octyl)]ETASIPPQKT[dV]K))
stdout: 4.22

====

Kindly supply the reported hNE/hPr3 selectivity values for the records listed here.
- tested.on: human proteinase 3 (Homo sapiens, UniProt P24158)
- Construct: purchased Elastin Products Company, USA
- method: Inhibition of human proteinase 3 (substrate Boc-Ala-Ala-Nva-SBzl)
- Format: biochemical
- experimental.parameters: ratio of hPr3 IC50 to hNE IC50
Where a SMILES comes first, the peptide text is derived from it. [ ]: non-standard residue; d: D form. The star is where a group is joined. Gly(octyl) = CCCCCCCC[C@H](N)C(=O)O; hTyr = N[C@@H](CCc1ccc(O)cc1)C(=O)O; Octanoyl = CCCCCCCC(=O)*; Dab = NCC[C@H](N)C(=O)O; Nlys = NCCCCNCC(=O)O
Just the number, please, no unit after it.

stdin: Which hNE/hPr3 selectivity value belongs to CCCCCCCC[C@@H]1NC(=O)[C@@H]2CCCN2C(=O)[C@H]2CCCN2C(=O)[C@H](CC(N)=O)NC(=O)[C@H](CCCCN)NC(=O)[C@H](CCC(N)=O)NC(=O)[C@@H]2CCCN2C(=O)[C@@H]2CCCN2C(=O)[C@H]([C@@H](C)CC)NC(=O)[C@H](CO)NC(=O)[C@H](C)NC(=O)[C@H]([C@@H](C)O)NC(=O)[C@H](CCc2ccc(O)cc2)NC1=O [Example 48] (cyclo([Gly(octyl)][hTyr]TASIPPQKN[dP]P)) ?
stdout: 407

stdin: Dear colleague, I am looking for the recorded hNE/hPr3 selectivity of the following compound: CCCCCCCC[C@@H]1NC(=O)[C@@H]2CCCN2C(=O)[C@H]2CCCN2C(=O)[C@H]([C@@H](C)O)NC(=O)[C@H](CCCCN)NC(=O)[C@H](CCC(N)=O)NC(=O)CN(CCCCN)C(=O)[C@@H]2CCCN2C(=O)[C@H]([C@@H](C)CC)NC(=O)[C@H](CO)NC(=O)[C@H](C)NC(=O)[C@H]([C@@H](C)O)NC(=O)[C@H](CCC(=O)O)NC1=O [Example 35] (cyclo([Gly(octyl)]ETASIP[Nlys]QKT[dP]P))
stdout: 195

stdin: Dear colleague, I am looking for the recorded hNE/hPr3 selectivity of the following compound: CCCCCCCC[C@@H]1NC(=O)[C@H](CCCCN)NC(=O)[C@@H](Cc2ccc(O)cc2)NC(=O)[C@H]([C@@H](C)O)NC(=O)[C@H](CCCCN)NC(=O)[C@H](CCC(N)=O)NC(=O)[C@@H]2CCCN2C(=O)[C@@H]2CCCN2C(=O)[C@H]([C@@H](C)CC)NC(=O)[C@H](CO)NC(=O)[C@H](C)NC(=O)[C@H]([C@@H](C)O)NC(=O)[C@H](CCC(=O)O)NC1=O [Example 25] (cyclo([Gly(octyl)]ETASIPPQKT[dY]K))
stdout: 6531

stdin: hNE/hPr3 selectivity for CCCCCCCC(=O)NCC[C@@H]1NC(=O)[C@@H]2CCCN2C(=O)[C@H]2CCCN2C(=O)[C@H]([C@@H](C)O)NC(=O)[C@H](CCCCN)NC(=O)[C@H](CCC(N)=O)NC(=O)[C@@H]2CCCN2C(=O)[C@@H]2CCCN2C(=O)[C@H]([C@@H](C)CC)NC(=O)[C@H](CO)NC(=O)[C@H](C)NC(=O)[C@H]([C@@H](C)O)NC(=O)[C@H](CCC(=O)O)NC1=O [Example 15] (cyclo([Dab](Octanoyl)ETASIPPQKT[dP]P)) ?
stdout: 2366
